Each entry below carries its recorded aptazyme ON/OFF ratio.
B1: Pistol ribozyme (parent)
chain: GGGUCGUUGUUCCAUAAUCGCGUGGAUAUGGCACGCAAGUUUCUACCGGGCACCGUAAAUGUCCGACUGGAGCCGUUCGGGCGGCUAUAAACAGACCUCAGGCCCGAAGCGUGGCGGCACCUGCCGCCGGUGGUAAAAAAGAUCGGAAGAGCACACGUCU

- Variants of: B1
- test.description: aptazyme ON/OFF ratio, guanine; higher = stronger switching; co-transcriptional cleavage with and without guanine
Form: value (number only, do not type unit).

Some solved cases for reference:
INSERT INTO assay_data (sequence_variant, recorded_result) VALUES
  ('U7C G9C U11C C13G', 1.02),
  ('U7C U8C U10C U11C', 1.46),
  ('U7C U8C G9A U10A C12G C13U', 1.16),
  ('U7C U8C G9A U10A C12U C13U', 1.13),
  ('U7A U8G G9A U10G C12A C13G', 1.13),
  ('U7A U8C U10G U11C C12A', 2.43);

Please report the recorded aptazyme ON/OFF ratio for U8G G9A C12A C13U .
1.39

What do you get for U8C G9A U11A C12G C13A ?
1.14

Hello, the source for this data is the RNAGym collection of RNA variant scans (doi:10.1021/acssynbio.7b00057), in case you need it.
